Molecular target: T1, CRBN, Q96SW2;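 further: pooled lentiviral library of zinc finger degron-EGFP fusions in mCherry-positive Jurkat cells, FACS-sorted after compound exposure, with degron abundance counted by next-generation sequencing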
T1 chain: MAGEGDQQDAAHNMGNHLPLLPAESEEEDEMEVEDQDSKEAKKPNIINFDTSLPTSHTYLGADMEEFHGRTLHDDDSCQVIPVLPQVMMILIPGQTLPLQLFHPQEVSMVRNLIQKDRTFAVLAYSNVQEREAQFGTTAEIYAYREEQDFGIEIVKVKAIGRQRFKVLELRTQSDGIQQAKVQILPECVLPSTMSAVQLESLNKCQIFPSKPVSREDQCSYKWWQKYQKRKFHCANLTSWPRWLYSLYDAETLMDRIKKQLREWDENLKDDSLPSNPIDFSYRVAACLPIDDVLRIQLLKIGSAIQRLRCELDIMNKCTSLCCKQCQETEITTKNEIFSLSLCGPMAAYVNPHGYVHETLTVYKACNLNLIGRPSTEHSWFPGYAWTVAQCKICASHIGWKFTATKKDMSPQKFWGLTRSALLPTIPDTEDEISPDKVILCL
Assay: log2 fold change of degron read counts, EGFP-low vs EGFP+ sorted cells (limma voom), compound-induced degradation; higher = more compound-induced degradation of the degron-EGFP fusion; degrons are variants of IKZF1/3 zinc finger 2; compound dose not given here
Settings: Jurkat; 18 h; compound: thalidomide
Over roughly 8,300 sequences, “log2 fold change of degron read counts, EGFP-low vs EGFP+ sorted cells (limma voom), compound-induced degradation” has its median near -1.1; the highest 2% begin near 3.2. For the sample, the highest values were picked, then their nearest neighbours and some sequences at random.
Below, each of the sequences is paired with its reported log2 fold change of degron read counts value.
Answer with a number only.

stdin: Answer with the recorded log2 fold change of degron read counts for the sequence listed here: FECDVCGAWFTQKGNLLRHIKL [46F_47E_49D_50V_52G_53A_54W_55F_67L_, Q9UKT9]
stdout: -2.52

stdin: Answer with the recorded log2 fold change of degron read counts for the sequence listed here: FICPICGHFFTQKGNLLRHIKL [46F_47I_49P_50I_52G_53H_54F_55F_67L_, Q9UKT9]
stdout: -1.31

stdin: Answer with the recorded log2 fold change of degron read counts for the sequence listed here: FMCDQCGAMFTQKGNLLRHIKL [46F_47M_49D_50Q_52G_53A_54M_55F_67L_, Q9UKT9]
stdout: -2.89

stdin: Answer with the recorded log2 fold change of degron read counts for the sequence listed here: LYCPICGFICTQKGNLLRHIKL [46L_47Y_49P_50I_52G_53F_54I_55C_67L_, Q9UKT9]
stdout: 0.937

stdin: Answer with the recorded log2 fold change of degron read counts for the sequence listed here: FRCNVCGAQFTQKGNLLRHIKL [46F_47R_49N_50V_52G_53A_54Q_55F_67L_, Q9UKT9]
stdout: -0.561

stdin: Answer with the recorded log2 fold change of degron read counts for the sequence listed here: FNCDICGAEFTQKGNLLRHIKL [46F_47N_49D_50I_52G_53A_54E_55F_67L_, Q9UKT9]
stdout: -2.45

stdin: Answer with the recorded log2 fold change of degron read counts for the sequence listed here: FICDVCGASFTQKGNLLRHIKL [46F_47I_49D_50V_52G_53A_54S_55F_67L_, Q9UKT9]
stdout: 0.427
